testDescription: antivirals protecting cells from dengue CPE – CPE readout, HTS (AID 540333)
testContext: Dengue virus CPE inhibition in host cells, at 20 µM
Screen size: about 10,000 compounds; about 320 (3.2%) were called active. No stated cut-off is given here; in the data, active means CPE inhibition mostly above about 9.1% (no sharp cut-off); inactive means mostly below about 7.2%. For the sample, actives were picked, then their nearest neighbours and some compounds at random.
Your answer must be one of the following: Yes (active), No (inactive)

COc1cc(C(=O)OCC(=O)Nc2ccc(SC(F)F)cc2)cc(OC)c1OC : No
CCOC(=O)c1c(NC(=O)C2=C(C)NC(=S)NC2c2ccc(F)cc2F)sc(C)c1C (stereo not given) : Yes
COc1ccccc1CNC(=O)C(NS(=O)(=O)c1ccc2c(c1)OCCO2)C(C)C (stereo not given) : No

Query: State the result this test recorded for "COc1ccc(NC(=S)Nc2ccc(OCc3ccccc3)cc2)c(OC)c1" .
Response: No

Query: State the result this test recorded for "N#C/C(=C\c1ccc(OC(=O)c2ccc(Br)s2)cc1)c1nc2ccccc2[nH]1" .
Response: No

Ref: PubChem BioAssay AID540333
